Recorded log10 vapour pressure (mmHg) values for a group of molecules are listed next.

{"molecule": "CC(Cl)(Cl)[N+](=O)[O-]", "log10 vapour pressure (mmHg)": 1.23}
{"molecule": "Cc1csc(C)n1", "log10 vapour pressure (mmHg)": 0.706}
{"molecule": "Nc1ccc(Cl)c(Cl)c1", "log10 vapour pressure (mmHg)": -2.2}
{"molecule": "NN(c1ccccc1)c1ccccc1", "log10 vapour pressure (mmHg)": -3.31}
{"molecule": "CC(Cl)(Cl)Cl", "log10 vapour pressure (mmHg)": 2.09}
{"molecule": "Cc1cccc(S)c1", "log10 vapour pressure (mmHg)": -0.257}
{"molecule": "CC(C)(C)C1CCC(O)CC1 (centres undefined)", "log10 vapour pressure (mmHg)": -1.15}
{"molecule": "N#CCCCCCN", "log10 vapour pressure (mmHg)": -0.745}
{"molecule": "CCc1cccs1", "log10 vapour pressure (mmHg)": 1.05}

====

log10 Koc (L/kg) less than 3 is fulfilled; log10 Koc (L/kg) greater than or equal to 3 is not fulfilled.

{"compound": "COP(=S)(Oc1cc(Cl)c(Br)cc1Cl)c1ccccc1 (stereo not drawn)", "group": "not fulfilled"}
{"compound": "Cc1c(COC(=O)[C@@H]2[C@H](/C=C(\\Cl)C(F)(F)F)C2(C)C)cccc1-c1ccccc1 (racemic)", "group": "not fulfilled"}
{"compound": "Nc1c(Cl)cccc1Cl", "group": "not fulfilled"}
{"compound": "CC1CCCCC1NC(=O)Nc1ccccc1 (stereo not drawn)", "group": "fulfilled"}
{"compound": "Oc1cccc(O)c1", "group": "fulfilled"}
{"compound": "Cc1c2ccccc2cc2ccccc12", "group": "not fulfilled"}
{"compound": "Cc1ccc2cc3c(ccc4ccccc43)c3c2c1CC3", "group": "not fulfilled"}
{"compound": "CC(=O)Nc1ccc2c(c1)Cc1ccccc1-2", "group": "not fulfilled"}
{"compound": "C=CCN(CC=C)C(=O)CCl", "group": "fulfilled"}
{"compound": "COC(=O)NC(=S)Nc1ccccc1NC(=S)NC(=O)OC", "group": "not fulfilled"}
{"compound": "CCCC1COC(Cn2cncn2)(c2ccc(Cl)cc2Cl)O1 (stereo not drawn)", "group": "not fulfilled"}
{"compound": "NC(=O)c1ccccc1[N+](=O)[O-]", "group": "fulfilled"}

====

Listed next: entries and their corresponding log10 vapour pressure (mmHg).

{"molecule": "C=Cc1cc(C)ccc1C", "log10 vapour pressure (mmHg)": 0}
{"molecule": "COCCOCCOCCOC", "log10 vapour pressure (mmHg)": -1.39}
{"molecule": "C=C(F)F", "log10 vapour pressure (mmHg)": 4.48}
{"molecule": "CNc1ccc(NC)c2c1C(=O)c1ccccc1C2=O", "log10 vapour pressure (mmHg)": -10.7}
{"molecule": "CC(C)(C)c1ccc2cc3ccccc3cc2c1", "log10 vapour pressure (mmHg)": -6.19}
{"molecule": "Clc1cc(Cl)nc(-c2ccccc2)n1", "log10 vapour pressure (mmHg)": -4.05}
{"molecule": "C=CC=CCC", "log10 vapour pressure (mmHg)": 2.11}
{"molecule": "c1ccsc1", "log10 vapour pressure (mmHg)": 1.9}
{"molecule": "ClC1=C(Cl)[C@]2(Cl)[C@H]3[C@H]([C@@H]4C=C[C@H]3C4)[C@@]1(Cl)C2(Cl)Cl (racemic)", "log10 vapour pressure (mmHg)": -3.92}
{"molecule": "c1ccc(Oc2ccccc2)cc1", "log10 vapour pressure (mmHg)": -1.65}
{"molecule": "CCC(C)Cl (stereo unspecified)", "log10 vapour pressure (mmHg)": 2.19}
{"molecule": "COCCOC(C)=O", "log10 vapour pressure (mmHg)": 0.301}
{"molecule": "COC(=O)/C=C\\C(=O)OC", "log10 vapour pressure (mmHg)": -0.523}
{"molecule": "CCCCCCCCCCCCCCCCCCCCCCCCCCCCCCCCCCC", "log10 vapour pressure (mmHg)": -11.3}
{"molecule": "OCCCl", "log10 vapour pressure (mmHg)": 0.856}
{"molecule": "FC(F)CC(F)(F)F", "log10 vapour pressure (mmHg)": 3.05}

====

A collection of compounds and their measured melting point
observed_property: melting point

{"compound": "CCC1COC(Cn2cncn2)(c2ccc(Cl)cc2Cl)O1 (stereo unspecified)", "result": "84 °C"}
{"compound": "Cc1cccc(Cl)c1Cl", "result": "6 °C"}
{"compound": "CC(=O)OCC1=C[C@@H]2OC(=O)C3=COC(O[C@@H]4O[C@H](CO)[C@@H](O)[C@H](O)[C@H]4O)C1C32 (stereo partly specified)", "result": "132 °C"}
{"compound": "Cc1ccc2c(C)cccc2c1", "result": "-16.9 °C"}
{"compound": "CCCCCC#CCC(=O)O", "result": "17 °C"}
{"compound": "CCOC(=O)NN", "result": "46 °C"}
{"compound": "NC(=O)c1c(Cl)cccc1Cl", "result": "198 °C"}
{"compound": "CCCC1CCCC1", "result": "-117 °C"}
{"compound": "C=Cc1ccc(C)cc1", "result": "-34.1 °C"}
{"compound": "CCC(OC(N)=O)C1CCCCC1 (stereo unspecified)", "result": "128 °C"}
{"compound": "O=C(OCCO)c1ccccc1", "result": "45 °C"}
{"compound": "CC(=O)OCCCCOC(C)=O", "result": "12 °C"}
{"compound": "C#C[C@]1(O)C=C[C@H]2[C@@H]3CCC4=CC(=O)CC[C@@H]4[C@H]3CC[C@@]21CC", "result": "198 °C"}
{"compound": "CNC(=O)c1cccnc1", "result": "104 °C"}
{"compound": "CS(=O)(=O)NC(=O)c1cc(Oc2ccc(C(F)(F)F)cc2Cl)ccc1[N+](=O)[O-]", "result": "220 °C"}
{"compound": "Nc1ccc2ncsc2c1", "result": "87 °C"}
{"compound": "Oc1ccc2c(c1)CCC2", "result": "58 °C"}
{"compound": "S=C1NCCS1", "result": "106 °C"}
{"compound": "C[Si](C)(C)O[Si](C)(C)O[Si](C)(C)O[Si](C)(C)O[Si](C)(C)O[Si](C)(C)C", "result": "-59 °C"}
{"compound": "Cc1ccc2cccc(C)c2n1", "result": "27 °C"}
{"compound": "O=C1C(Cl)=C(Cl)C(=O)N1c1ccc(F)cc1", "result": "241 °C"}
{"compound": "O=S(O)c1ccc(Cl)cc1", "result": "99 °C"}
{"compound": "O=C1C2CC=CCC2C(=O)N1SC(Cl)(Cl)Cl (stereo unspecified)", "result": "178 °C"}
{"compound": "CCN(CC)c1nc(C)cc(OP(=S)(OC)OC)n1", "result": "15 °C"}
{"compound": "C1=CCNCC1", "result": "-48 °C"}
{"compound": "COC1=C(OC)C(=O)C(C)=CC1=O", "result": "59.5 °C"}
{"compound": "O=[N+]([O-])c1cc(C(F)(F)F)ccc1Cl", "result": "-2.5 °C"}
{"compound": "Cc1ccc(Nc2ccc(C)cc2)cc1", "result": "79.8 °C"}
{"compound": "CCCCCc1ccc(O)cc1O", "result": "72.5 °C"}
{"compound": "c1ccc2c(c1)Nc1ccccc1O2", "result": "156 °C"}
{"compound": "CC(CO)(CO)C(=O)O", "result": "190 °C"}

====

Each record is given class 1 if its reported log10 Koc (L/kg) is strictly below 2. Records at or above 2 are given class 0.

{"molecule": "Clc1ccccc1-c1ccccc1", "group": "class 0"}
{"molecule": "CCCN(CCC)c1c([N+](=O)[O-])cc(C(F)(F)F)cc1[N+](=O)[O-]", "group": "class 0"}
{"molecule": "OCc1ccccc1", "group": "class 1"}
{"molecule": "Cc1ccccc1CO[C@H]1C[C@]2(C(C)C)CC[C@@]1(C)O2 (single isomer, unassigned)", "group": "class 0"}
{"molecule": "c1ccc2ncccc2c1", "group": "class 0"}
{"molecule": "CC1=C(C(=O)Nc2ccccc2)SCCO1", "group": "class 0"}
{"molecule": "NC(=O)Nc1ccccc1", "group": "class 1"}
{"molecule": "CCCCOCCO", "group": "class 1"}
{"molecule": "CS(=O)(=O)NC(=O)c1cc(Oc2ccc(C(F)(F)F)cc2Cl)ccc1[N+](=O)[O-]", "group": "class 1"}
{"molecule": "CC/C(=C(/CC)c1ccc(O)cc1)c1ccc(O)cc1", "group": "class 0"}
{"molecule": "Clc1c(Cl)c(Cl)c2c(Cl)c(Cl)c(Cl)c(Cl)c2c1Cl", "group": "class 0"}
{"molecule": "COc1ccccc1O", "group": "class 1"}
{"molecule": "CC(Cl)Cl", "group": "class 1"}
{"molecule": "Oc1cccc(Cl)c1Cl", "group": "class 0"}
{"molecule": "COc1cccc(NC(=O)N(C)C)c1", "group": "class 1"}
{"molecule": "O=C(O)COc1nc(Cl)c(Cl)cc1Cl", "group": "class 1"}
{"molecule": "O=C(O)Cc1ccccc1", "group": "class 1"}
{"molecule": "C1CCC2CCCCC2C1 (stereo unspecified)", "group": "class 0"}
{"molecule": "NC(N)=O", "group": "class 1"}
{"molecule": "Cc1cc(C)c(C)cc1C", "group": "class 0"}
{"molecule": "Brc1ccc(Oc2ccccc2)cc1", "group": "class 0"}
{"molecule": "CCCCC(CC)COC(=O)c1ccccc1C(=O)OCC(CC)CCCC (stereo unspecified)", "group": "class 0"}
{"molecule": "COP(=S)(OC)Oc1nc(Cl)c(Cl)cc1Cl", "group": "class 0"}
{"molecule": "NC(=O)Nc1cccc(Br)c1", "group": "class 0"}
{"molecule": "c1ccncc1", "group": "class 1"}
{"molecule": "O=S1OCC2C(CO1)C1(Cl)C(Cl)=C(Cl)C2(Cl)C1(Cl)Cl (stereo unspecified)", "group": "class 0"}
{"molecule": "COc1cccc(O)c1", "group": "class 1"}
